Below, each entry is listed with its recorded Biodistribution Femur.
# Test system: HT-1080.hFAP and HT-1080.wt xenografts
# ASSAY_EXPLANATION: Quantitative biodistribution in HT-1080.hFAP and HT-1080.wt xenografted mice
# Format: in vivo
# CONDITION_CONTEXT: 4 h p.i., HT-1080.hFAP and HT-1080.wt xenografts
Respond numerically; units are % IA/g and should not be typed.

Which Biodistribution Femur value belongs to CN(CCCN1CCN(C(=O)CCC(C(=O)O)N2CCN3CCN(CC2)CC(=O)[O][61Cu][O]C(=O)C3)CC1)c1ccc2nccc(C(=O)NCC(=O)N3CC(F)(F)C[C@H]3C#N)c2c1 (some centres unmarked) [[^61Cu]Cu-NODAGA-FAPI-46] ?
4.6

Entry CN(C(=O)CCC(=O)N1CCN(C(=O)CC[C@H](C(=O)O)N2CCN3CCN(CC2)CC(=O)[O][61Cu][O]C(=O)C3)CC1)c1ccc2nccc(C(=O)NCC(=O)N3CC(F)(F)C[C@H]3C#N)c2c1 [[^61Cu]Cu-NODAGA-F4] has what Biodistribution Femur?
1.2

Reference source: patent US20240173440A1
